Measured EC50 nM H1650 (in vitro tumor cell cytotoxicity) accompanies every entry in the list below.
# target-under-test: T1, Human full length B7-H3 (human, UniProt Q5ZPR3 29-534)
# T1 sequence: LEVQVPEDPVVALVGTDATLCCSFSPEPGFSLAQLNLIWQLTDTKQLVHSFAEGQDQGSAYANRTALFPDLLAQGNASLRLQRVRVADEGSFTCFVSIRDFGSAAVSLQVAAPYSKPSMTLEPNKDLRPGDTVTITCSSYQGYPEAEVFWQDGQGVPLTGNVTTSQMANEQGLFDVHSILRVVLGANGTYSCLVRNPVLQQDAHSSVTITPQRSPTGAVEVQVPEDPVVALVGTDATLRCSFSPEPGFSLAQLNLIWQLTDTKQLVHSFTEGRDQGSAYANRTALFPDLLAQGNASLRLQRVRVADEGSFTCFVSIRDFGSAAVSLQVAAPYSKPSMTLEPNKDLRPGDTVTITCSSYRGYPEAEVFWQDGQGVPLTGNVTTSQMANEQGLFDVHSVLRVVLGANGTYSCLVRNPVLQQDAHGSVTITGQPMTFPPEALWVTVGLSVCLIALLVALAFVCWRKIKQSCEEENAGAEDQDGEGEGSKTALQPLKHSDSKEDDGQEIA
# measurement-description: cell-based or functional assay
Express it in nM; write the number only.

Asked: Dear colleague, I am looking for the recorded EC50 nM H1650 (in vitro tumor cell cytotoxicity) of the following binder: huAb3v2.5-YG (antibody, human IgG1, kappa, L234A L235A, V domains shown, synthon YG on interchain Cys) VH: EVQLVQSGAEVKKPGSSVKVSCKASGYTFSSYWMHWVRQAPGQGLEWIGLIHPESGSTNYNEMFKNRATLTVDRSTSTAYMELSSLRSEDTAVYYCAGGGRLYFDYWGQGTTVTVSS VL: DIVMTQSPLSLPVTPGEPASISCRSSQSLVHSNRDTYLRWYLQKPGQSPQLLIYKVSNRFSGVPDRFSGSGSGTDFTLKISRVEAEDVGVYYCSQSTHVPYTFGGGTKVEIKR
Given back: 0.71

Asked: Returns the measured EC50 nM H1650 (in vitro tumor cell cytotoxicity) for the input binder. Input: huAb13v1-TX (antibody, human IgG1, kappa, L234A L235A, V domains shown, synthon TX on interchain Cys) VH: EVQLQESGPGLVKPSETLSLTCAVTGYSITSGYSWHWIRQFPGNGLEWMGYIHSSGSTNYNPSLKSRISISRDTSKNQFFLKLSSVTAADTAVYYCAGYDDYFEYWGQGTTVTVSS VL: DIQMTQSPSSLSASVGDRVTITCKASQNVGFNVAWYQQKPGKSPKALIYSASYRYSGVPSRFSGSGSGTDFTLTISSLQPEDFAEYFCQQYNWYPFTFGQGTKLEIKR
Given back: 0.22

Okay, now this binder:
Asked: Tell me the measured EC50 nM H1650 (in vitro tumor cell cytotoxicity) of huAb3v2.6-TV (antibody, human IgG1, kappa, L234A L235A, V domains shown, synthon TV on interchain Cys) VH: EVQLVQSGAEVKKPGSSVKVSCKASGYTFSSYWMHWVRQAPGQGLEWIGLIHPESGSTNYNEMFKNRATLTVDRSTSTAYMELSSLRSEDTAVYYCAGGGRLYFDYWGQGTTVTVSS VL: DIVMTQSPLSLPVTPGEPASISCRSSQSLVHSNQDTYLRWYLQKPGQSPQLLIYKVSNRFSGVPDRFSGSGSGTDFTLKISRVEAEDVGVYYCSQSTHVPYTFGGGTKVEIKR , please.
Given back: 0.52
